# Test system: NCI-H1355
# experiment.description: relative viability (nuclei count vs DMSO), 5 days (fraction); higher = more cells survive
# study.conditions: first compound 0.253 µM
relative viability: recorded values
Give a plain numeric answer without units written out.

// solved cases for relative viability follow
stdin: Name the recorded relative viability for Nc1cccc2c1CN(C1CCC(=O)NC1=O)C2=O (stereo not drawn) [Lenalidomide] + CC1(C)CCC(c2ccc(Cl)cc2)=C(CN2CCN(c3ccc(C(=O)NS(=O)(=O)c4ccc(N[C@H](CCN5CCOCC5)CSc5ccccc5)c(S(=O)(=O)C(F)(F)F)c4)cc3)CC2)C1 [Navitoclax] (partner 0.5 µM) .
stdout: 1

stdin: Subsequent entry: Nc1cccc2c1CN(C1CCC(=O)NC1=O)C2=O (stereo not drawn) [Lenalidomide] + O=C(c1cc(Cc2n[nH]c(=O)c3ccccc23)ccc1F)N1CCN(C(=O)C2CC2)CC1 [Olaparib] (partner 8 µM)
stdout: 0.756

stdin: Nc1cccc2c1CN(C1CCC(=O)NC1=O)C2=O (stereo not drawn) [Lenalidomide] + CC(=O)Nc1cccc(-n2c(=O)n(C3CC3)c(=O)c3c(Nc4ccc(I)cc4F)n(C)c(=O)c(C)c32)c1 [Trametinib] (partner 0.02 µM) , same question.
stdout: 0.431

---
stdin: Value lookup for relative viability; key = Nc1cccc2c1CN(C1CCC(=O)NC1=O)C2=O (stereo not drawn) [Lenalidomide] + Cc1nc(Nc2ncc(C(=O)Nc3c(C)cccc3Cl)s2)cc(N2CCN(CCO)CC2)n1 [Dasatinib] (partner 0.075 µM)
stdout: 0.701

stdin: Now try Nc1cccc2c1CN(C1CCC(=O)NC1=O)C2=O (stereo not drawn) [Lenalidomide] + C[C@@H](Oc1cc(-c2cnn(C3CCNCC3)c2)cnc1N)c1c(Cl)ccc(F)c1Cl [Crizotinib] (partner 1 µM) .
stdout: 1.04

stdin: Check Nc1cccc2c1CN(C1CCC(=O)NC1=O)C2=O (stereo not drawn) [Lenalidomide] + COc1cc2c(Oc3ccc(NC(=O)C4(C(=O)Nc5ccc(F)cc5)CC4)cc3F)ccnc2cc1OCCCN1CCOCC1 [Foretinib] (partner 0.25 µM) too.
stdout: 0.973

stdin: Also, Nc1cccc2c1CN(C1CCC(=O)NC1=O)C2=O (stereo not drawn) [Lenalidomide] + Nc1nc2[nH]cc(CCc3ccc(C(=O)N[C@@H](CCC(=O)O)C(=O)O)cc3)c2c(=O)[nH]1 [Pemetrexed] (partner 0.2 µM) please.
stdout: 1.08

stdin: One more compound: Nc1cccc2c1CN(C1CCC(=O)NC1=O)C2=O (stereo not drawn) [Lenalidomide] + CS(=O)(=O)N1CCN(Cc2cc3nc(-c4cccc5[nH]ncc45)nc(N4CCOCC4)c3s2)CC1 [Pictilisib] (partner 1 µM)
stdout: 0.419

###

# Tested on: ABC-1
# experiment.description: relative viability (nuclei count vs DMSO), 5 days (fraction); higher = more cells survive
# study.conditions: first compound 0.006325 µM
observable: relative viability

stdin: Given the molecule CCNC(=O)c1noc(-c2cc(C(C)C)c(O)cc2O)c1-c1ccc(CN2CCOCC2)cc1 [Luminespib] + Cc1nc(NC(=O)N2CCC[C@H]2C(N)=O)sc1-c1ccnc(C(C)(C)C(F)(F)F)c1 [Alpelisib] (partner 2 µM) , what is its reported relative viability?
stdout: 0.95

We now examine a further molecule.
stdin: For CCNC(=O)c1noc(-c2cc(C(C)C)c(O)cc2O)c1-c1ccc(CN2CCOCC2)cc1 [Luminespib] + Cc1nc(Nc2ncc(C(=O)Nc3c(C)cccc3Cl)s2)cc(N2CCN(CCO)CC2)n1 [Dasatinib] (partner 0.075 µM) , what is its reported relative viability?
stdout: 0.526
